- system: cyclin D1/CDK4 (Homo sapiens, UniProt P11802)
- Sequence (P11802 whole entry, species assumed): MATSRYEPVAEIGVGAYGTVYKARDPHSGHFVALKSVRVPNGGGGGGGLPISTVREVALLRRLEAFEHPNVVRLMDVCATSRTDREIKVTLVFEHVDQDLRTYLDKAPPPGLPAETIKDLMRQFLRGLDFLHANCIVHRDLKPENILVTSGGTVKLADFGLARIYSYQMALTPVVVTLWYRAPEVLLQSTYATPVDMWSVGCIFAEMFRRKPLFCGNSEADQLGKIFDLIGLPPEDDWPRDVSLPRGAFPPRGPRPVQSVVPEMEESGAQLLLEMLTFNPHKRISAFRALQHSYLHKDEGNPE
- Sequence (P24385 whole entry partner, species assumed): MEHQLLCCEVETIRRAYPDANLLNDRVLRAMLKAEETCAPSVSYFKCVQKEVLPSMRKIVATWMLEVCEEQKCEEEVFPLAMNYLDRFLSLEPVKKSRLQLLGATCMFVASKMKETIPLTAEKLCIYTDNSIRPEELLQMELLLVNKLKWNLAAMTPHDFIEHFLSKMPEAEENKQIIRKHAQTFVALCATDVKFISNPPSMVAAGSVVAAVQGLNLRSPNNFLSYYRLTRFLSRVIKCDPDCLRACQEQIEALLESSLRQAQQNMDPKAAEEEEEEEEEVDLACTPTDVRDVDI
- test: Bioassay for CDK-4 inhibitors (phosphorylation of biotinylated peptide substrate, 33P-γ-ATP, flash plates)
- test_conditions: 2 μM ATP, 2 hours at 37° C., 10 concentrations; read-out: IC50 (concentration which deactivates 50% of CDK-4)
parameter_measured: IC50 (µM)

Worked cases, answers included:
>>> test_value("CC(=O)OC1C(OC(COC(=O)CC(=O)O)C(O)C(O)C(O)C(=O)OC(C)CCCCCCCCCCCCCCCc2cccc(O)c2C(=O)O)OC(CO)C(O)C1O (centres unmarked) [Caloporoside D]")
1.8
>>> test_value("CC(=O)Oc1cccc(CCCCCCCCCCCCCCCC(C)OC(=O)C(O)C(O)C(O)C(CO)OC2OC(CO)C(O)C(O)C2O)c1C(=O)O (centres unmarked) [Caloporoside B]")
1.5
>>> test_value("CC(=O)OC1C(OC(CO)C(O)C(O)C(O)C(=O)OC(C)CCCCCCCCCCCCCCCc2cccc(O)c2C(=O)O)OC(CO)C(O)C1O (centres unmarked) [Caloporoside F]")
1.5

a = CC(=O)OC1C(O)C(CO)OC(OC(COC(=O)CC(=O)O)C(O)C(O)C(O)C(=O)OC(C)CCCCCCCCCCCCCCCc2cccc(O)c2C(=O)O)C1O (centres unmarked) [Caloporoside E]
b = CC(=O)Oc1cccc(CCCCCCCCCCCCCCCC(C)OC(=O)C(O)C(O)C(O)C(COC(=O)CC(=O)O)OC2OC(CO)C(O)C(O)C2OC(C)=O)c1C(=O)O (centres unmarked) [Caloporoside C]
Which one would you say has the larger IC50 value: a , or b ? Your answer should be the label of the entry you select.
b
